The reported numbers originate from patent US20220411492A1.

Molecular target: T1, human Claudin 18.2 (hCLDN18.2) (human, UniProt P56856-2 1-261)
T1 construct: whole, on cells; also called CLDN18A2; claudin 18 splice variant 2
Assay: FACS, PDX-hCLDN18.2 gastric cancer tumor tissue-derived cells
Measured Mean maximum fluorescence intensity (Top MFI) by item
measuredAttribute: Mean maximum fluorescence intensity (Top MFI)

>>> datavalue("ch-43F5 (antibody, V domains shown, also called chimeric antibody of clone 43F5) VH: QVQLQQPGAELVKPGTSVKLSCKASGYTFTSYWTHWVKQRPGQGLEWIGMIHPNSGSSNYNEKFKSKATLTVDKSSSTAYMQLRRLTSEDSAVYYCTRIHYGNAMDYWGQGTSVTVSS VL: DIVMTQSPSSLTVTAGEKVTMTCKSSQSLLNSGNQKNYLTWYQQKPGQPPKLLIYWASTRESGVPDRFTGSGSGTDFTLTISSVQAEDLAIYYCQNDYSFPFTFGSGTKLEIK")
7620
>>> datavalue("ch-32G8 (antibody, V domains shown, also called chimeric antibody of clone 32G8) VH: EVHLQQSGPVLVKPGASVKMSCKASGYTFTDYHMNWVKQSHGKSLEWIGVINPYNGGIRYNQKFKGKATLTVDKSSSTAYMELNSLTSEDSAVYYCATIYYGNSFAYWGQGTLVTVSA VL: DIVMTQSPSSLTVTAGEKVTMSCKSSQSLLNSGNQKNYLTWYQQKPGQPPKLLIYWASTRESGVPDRFTGSGSGTDFTLTISSVQAEDLAVYYCQNNYIYPFTFGGGTKLEIR")
14800
